We begin with a simple list: items and their reported kd ratio pH 7.4/6.0.
target_desc: T1, human FcRn/b2M (human, UniProt P61769 21-119, biotinylated)
T1 construct: bought recombinant biotinylated protein (ACRO FCM-H82W4 or Immunitrack ITF01); also called hFcRn; hFcRn/hb2M
procedure_summary: SPR off-rate; pH 7.4 vs pH 6.0;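 further: surface plasmon resonance with diluted periplasmic extracts flowed over ligand surfaces, 120 s association and 600–3600 s dissociation at 25 °C, running buffer containing 150 mM NaCl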
endpoint_name: kd ratio pH 7.4/6.0

- binder: "T0263018B11 S101T (VHH, name in Kabat numbering, FLAG3-His6 tagged) VHH: EVQLVESGGGVVQPGGSLRLSCAASGFTFSSYAMYWVRQAPGKGLEWVSAISSGGGSTDYADSVKGRFTISRDNSKNTLYLQMNSLRPEDTALYYCAADTLYTSLTWYTYWGQGTLVTVSS"
  reported_measurement: 44
- binder: "T0263018B11 F29V (VHH, name in Kabat numbering, FLAG3-His6 tagged) VHH: EVQLVESGGGVVQPGGSLRLSCAASGFTVSSYAMYWVRQAPGKGLEWVSAISSGGGSTDYADSVKGRFTISRDNSKNTLYLQMNSLRPEDTALYYCAADTLYTSLTWYSYWGQGTLVTVSS"
  reported_measurement: 42
- binder: "T0263018B11 S100M (VHH, name in Kabat numbering, FLAG3-His6 tagged) VHH: EVQLVESGGGVVQPGGSLRLSCAASGFTFSSYAMYWVRQAPGKGLEWVSAISSGGGSTDYADSVKGRFTISRDNSKNTLYLQMNSLRPEDTALYYCAADTLYTMLTWYSYWGQGTLVTVSS"
  reported_measurement: 57
- binder: "T0263018B11 T57W (VHH, name in Kabat numbering, FLAG3-His6 tagged) VHH: EVQLVESGGGVVQPGGSLRLSCAASGFTFSSYAMYWVRQAPGKGLEWVSAISSGGGSWDYADSVKGRFTISRDNSKNTLYLQMNSLRPEDTALYYCAADTLYTSLTWYSYWGQGTLVTVSS"
  reported_measurement: 37
